# Study Target: PfRH5 of Plasmodium falciparum strain RF7 (on live parasites) (Plasmodium falciparum)
# Protocol Summary: cell-based or functional assay
The threshold is inclusive: Max growth inhibition (%) RF7 of exactly 20% counts as 1; values below receive 0.

{"columns": ["Binder", "Answer Label"],
 "data": [
  ["H1H29104P (antibody, V domains shown) VH: EVQLVESGGGLVQPGRSLRLSCAASGFRFDDYAMHWVRQAPGKGLEWVSGINWNSGGKGYADSVQGRFTISRDNAKNSLYLQMNSLRTEDTALYYCAKDRGIAARLLSRDAFDMWGQGTMVTVSS VL: DIQLTQSPSFLSASVGDRVTITCWASQDVSSYLAWYQQKPGKSPKLLIFAASTLQGGIPSRFSGSGSGTEFTLTISSLRPEDFATYYCQHLNTYPYTFGQGTKLEIKR", 1],
  ["H1H29109P (antibody, V domains shown) VH: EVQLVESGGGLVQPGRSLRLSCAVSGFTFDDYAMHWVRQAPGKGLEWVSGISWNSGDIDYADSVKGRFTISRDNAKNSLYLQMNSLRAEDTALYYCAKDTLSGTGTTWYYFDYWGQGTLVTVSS VL: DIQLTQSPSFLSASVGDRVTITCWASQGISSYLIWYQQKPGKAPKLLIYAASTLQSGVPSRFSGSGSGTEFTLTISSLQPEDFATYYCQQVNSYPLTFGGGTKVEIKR", 0],
  ["H1H29125P (antibody, V domains shown) VH: QVQLVESGGGVVQPGRSLRLSCAASGFTFSSYGMHWVRQAPGKGLEWMAVISYDGSNKYYADSVKGRFTISRDNSKNTLFLQMNSLRPEDTAVYYCAQDGSSAIYYFYGMDVWGQGTTVTVSS VL: DIQMTQSPSSLSASIGDRVTITCRASQDINNYLAWFQQKPGKAPKSLIYAASSLQSGVPSKFSGSGSGTDFTLTISSLQPEDFATYYCLQYNSYHPTFGQGTKLEIKR", 1],
  ["H1H29100P (antibody, V domains shown) VH: QLQLQESGPGLVKPSETLSLTCTVSGGSISSSSYYWGWIRQPPGKGLEWIGIIYYSGSTYYNPSLKSRVTISVDTSKNQFSLKLSSVTAADTAVYYCARQDREALFDYWGQGTLVTVSS VL: EIVLTQSPDFQSVTPKEKVTITCRASQRIGSSLHWYQQKPDQSPKLLIKYASQSFSGVPSRFSGSGSGTDFTLTINSLEAEDAATYYCHQSSTLPTFGQGTRLEIKR", 0],
  ["H1H29089P (antibody, V domains shown) VH: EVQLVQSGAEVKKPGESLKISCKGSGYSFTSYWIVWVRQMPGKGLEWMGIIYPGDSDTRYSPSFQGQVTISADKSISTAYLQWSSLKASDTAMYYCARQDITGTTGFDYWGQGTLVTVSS VL: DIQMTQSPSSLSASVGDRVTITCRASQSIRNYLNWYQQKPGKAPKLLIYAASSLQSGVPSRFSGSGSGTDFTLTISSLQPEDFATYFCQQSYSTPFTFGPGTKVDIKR", 1],
  ["H1H29138P (antibody, V domains shown) VH: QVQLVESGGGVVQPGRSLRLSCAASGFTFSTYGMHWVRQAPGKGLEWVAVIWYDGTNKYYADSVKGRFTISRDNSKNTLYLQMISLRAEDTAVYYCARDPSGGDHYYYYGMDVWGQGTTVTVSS VL: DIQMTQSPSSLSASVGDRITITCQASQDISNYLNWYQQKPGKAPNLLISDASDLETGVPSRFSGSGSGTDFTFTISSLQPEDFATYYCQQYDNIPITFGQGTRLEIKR", 1],
  ["H1H29127P (antibody, V domains shown) VH: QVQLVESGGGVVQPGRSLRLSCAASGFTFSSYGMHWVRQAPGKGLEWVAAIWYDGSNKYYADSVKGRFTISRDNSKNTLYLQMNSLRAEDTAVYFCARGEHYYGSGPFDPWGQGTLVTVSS VL: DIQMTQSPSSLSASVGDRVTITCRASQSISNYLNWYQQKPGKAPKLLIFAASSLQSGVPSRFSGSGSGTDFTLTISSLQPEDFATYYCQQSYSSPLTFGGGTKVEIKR", 1]
]}
